Data origin, for the record: patent US11384054B2

Assay: Solubility test of ivacaftor in solvents and acetone/water mixtures at 25° C.
Format: physicochemical
Settings: acetone/water, organic solvent or mixture, 50% water in acetone, 25° C., read-out: Solubility in acetone/water
assay_readout: solubility (µg/mL)
All answers are understood in µg/mL, so give the number only.

Return reported solubility; argument: CC(C)(C)c1cc(C(C)(C)C)c(NC(=O)c2c[nH]c3ccccc3c2=O)cc1O
340

----------
Experiment: Solubility test of ivacaftor in solvents and acetone/water mixtures at 25° C.
Type: physicochemical
Details: acetone/water, organic solvent or mixture, 8% water in acetone, 25° C. (Table 1C), read-out: Solubility in acetone/water
assay_readout: solubility (mg/mL)
Quick reminder: number only, in mg/mL, skip the unit.

Given CC(C)(C)c1cc(C(C)(C)C)c(NC(=O)c2c[nH]c3ccccc3c2=O)cc1O , state its recorded solubility.
41.2

----------
Experiment: Solubility test of ivacaftor in solvents and acetone/water mixtures at 25° C.
Type: physicochemical
Conditions: acetone, organic solvent or mixture, Acetone, 25° C., read-out: Solubility
assay_readout: solubility (mg/mL)
Your answer is read as mg/mL, so omit the unit and give the number.

Look up solubility for this compound: CC(C)(C)c1cc(C(C)(C)C)c(NC(=O)c2c[nH]c3ccccc3c2=O)cc1O
27.9

----------
Assay: Solubility test of ivacaftor in solvents and acetone/water mixtures at 25° C.
Format: physicochemical
Details: acetone/water, organic solvent or mixture, 10% water in acetone, 25° C., read-out: Solubility in acetone/water
assay_readout: solubility (mg/mL)
Field format: number, assumed mg/mL, no unit text.

Quick check: solubility of CC(C)(C)c1cc(C(C)(C)C)c(NC(=O)c2c[nH]c3ccccc3c2=O)cc1O ?
47.1

----------
Assay: Solubility test of ivacaftor in solvents and acetone/water mixtures at 25° C.
Assay type: physicochemical
Conditions: ethanol, organic solvent or mixture, Ethanol, 25° C., read-out: Solubility
assay_readout: solubility (µg/mL)
Enter your answer as a number in µg/mL; do not include the unit.

Any idea what solubility was measured for CC(C)(C)c1cc(C(C)(C)C)c(NC(=O)c2c[nH]c3ccccc3c2=O)cc1O ?
4500

----------
Experiment: Solubility test of ivacaftor in solvents and acetone/water mixtures at 25° C.
Assay type: physicochemical
Conditions: acetone/water, organic solvent or mixture, 0% water in acetone, 25° C., read-out: Solubility in acetone/water
assay_readout: solubility (mg/mL)
The reply should contain only the number, in mg/mL.

I would be grateful if you could share the reported solubility for CC(C)(C)c1cc(C(C)(C)C)c(NC(=O)c2c[nH]c3ccccc3c2=O)cc1O [ivacaftor] .
27.9

----------
Test: Solubility test of ivacaftor in solvents and acetone/water mixtures at 25° C.
Type: physicochemical
Details: n-heptane, organic solvent or mixture, n-Heptane, 25° C., read-out: Solubility
assay_readout: solubility (mg/mL)
Form entry: value (mg/mL) — number only.

Entry under review: CC(C)(C)c1cc(C(C)(C)C)c(NC(=O)c2c[nH]c3ccccc3c2=O)cc1O . Reported solubility?
0.62
